Data origin, for the record: ChEMBL document CHEMBL3875229

Tested on: Candida albicans
Assay method text: microbe, parasite or virus in culture
Measurement setup: HLY4123, 16 h
Each item that follows carries a reported pEC50.
Answer as the number alone; pEC50 is minus log10 of concentration in mol/L.

Some solved cases for reference:
>  <Smiles repr>
COc1cc(Br)ccc1-n1cc(C(=O)NCC(=O)NCCC2=CCCCC2)c2ccccc2c1=O

>  <Measured on>
Candida albicans

>  <pEC50>
8.52

$$$$
>  <Smiles repr>
COc1cc(Br)ccc1-n1nc(C(=O)NCC(=O)NCCC2=CCCCC2)c2ccccc2c1=O

>  <Measured on>
Candida albicans

>  <pEC50>
9.00

$$$$
>  <Smiles repr>
Cc1c(Cl)ccc2c1NC(=O)[C@@]21[C@H]2C(=O)N(c3ccccc3)C(=O)[C@H]2[C@H]2CN(C(=O)OCc3ccccc3)CCN21

>  <Measured on>
Candida albicans

>  <pEC50>
9.52

$$$$

Let's switch to this compound now.
Noted pEC50 for COc1cc(Br)ccc1-n1cc(C(=O)NCC(=O)NCCC2=CCCCC2)c2ccc(Br)cc2c1=O , tested on Candida albicans: 8.52
